# system_under_test: Aurora kinase B (Homo sapiens)
# Sequence (Q96GD4 whole entry): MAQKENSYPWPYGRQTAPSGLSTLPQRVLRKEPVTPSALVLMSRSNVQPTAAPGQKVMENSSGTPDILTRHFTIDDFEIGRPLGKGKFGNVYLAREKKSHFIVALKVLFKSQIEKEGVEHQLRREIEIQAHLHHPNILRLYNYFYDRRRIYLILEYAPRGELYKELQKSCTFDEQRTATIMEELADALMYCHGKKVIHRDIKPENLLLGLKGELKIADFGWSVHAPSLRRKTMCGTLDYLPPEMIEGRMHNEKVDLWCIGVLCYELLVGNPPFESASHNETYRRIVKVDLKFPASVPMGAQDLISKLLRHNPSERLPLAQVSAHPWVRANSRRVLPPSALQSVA
Recorded IC50 split into classes lowest (below 4 nM), middle (4 nM to below 20 nM), highest (20 nM or more)

Q) Just checking, what class would you give CCOC(=O)c1[nH]cc2c1NC1=C(C(=O)CCC1)[C@H]2c1cccc(Oc2nc3ccccc3[nH]2)c1 here?
A) lowest

Q) Please report the category associated with CCOC(=O)c1[nH]cc2c1NC1=C(C(=O)CCC1)C2c1ccc(Sc2nc3ccccc3[nH]2)s1 (racemic) , nothing else.
A) highest

Q) Kindly identify the class of CCOC(=O)c1[nH]cc2c1NC1=C(C(=O)CCC1)C2c1cccc(Sc2nc3ccccc3[nH]2)n1 (racemic) .
A) middle

Q) State the class of the compound shown: CCOC(=O)c1[nH]cc2c1NC1=C(C(=O)CCC1)C2c1cccc(Sc2nc3ccccc3[nH]2)c1 (racemic)
A) middle

Q) Textbook exercise: identify the category of the compound given here, CCOC(=O)c1[nH]cc2c1NC1=C(C(=O)CCC1)C2c1ccnc(Sc2nc3ccccc3[nH]2)c1 (racemic) , according to its measured value.
A) highest

Q) Category of CCOC(=O)c1[nH]cc2c1NC1=C(C(=O)CN(C(=O)OC(C)(C)C)C1)C2c1ccc(Sc2nc3ccccc3[nH]2)o1 (racemic) :
A) highest

Q) # classify by IC50 band: CCOC(=O)c1[nH]cc2c1NC1=C(C(=O)CNC1)C2c1ccc(Sc2nc3ccccc3[nH]2)o1 (racemic)
A) lowest

Q) Band of CCOC(=O)c1[nH]cc2c1NC1=C(C(=O)CCC1)C2c1ccc(Sc2nc3c(N)cccc3[nH]2)o1 (racemic) ?
A) highest

Q) Category of CCOC(=O)c1[nH]cc2c1NC1=C(C(=O)CCC1)C2c1cccc(Oc2nc3ccccc3[nH]2)c1 (racemic) :
A) middle

Q) GET /class?item= CCOC(=O)c1[nH]cc2c1NC1=C(C(=O)CCC1)C2c1cc(Sc2nc3ccccc3[nH]2)cs1 (racemic)
A) lowest

----------
Hi there, I'd appreciate the recorded remaining at 5 µM for every entry that follows.
# assay_info: in vitro
# test_conditions: human, liver microsomes
# Description: Metabolic stability human liver microsomes assessed as stability at 5 uM by LC/MS-MS analysis
# unit: % | format: bare number

Q) Which remaining at 5 µM value is on record for CCOC(=O)c1[nH]cc2c1NC1=C(C(=O)CCC1)C2c1ccc(Sc2nc3cccc(F)c3[nH]2)o1 (racemic) ?
A) 47

Q) Which value of remaining at 5 µM has been reported for CCOC(=O)c1[nH]cc2c1NC1=C(C(=O)CCC1)C2c1ccc(Sc2nc3c(F)cc(F)cc3[nH]2)o1 (stereo unspecified) in the records?
A) 66

Q) State the recorded remaining at 5 µM for this entry: CCOC(=O)c1[nH]cc2c1NC1=C(C(=O)CN(C(=O)CN)C1)[C@H]2c1ccc(Sc2nc3ccccc3[nH]2)o1
A) 65

Q) Field request: remaining at 5 µM | item: CCOC(=O)c1[nH]cc2c1NC1=C(C(=O)CCC1)[C@H]2c1cccc(Oc2nc3ccccc3[nH]2)c1
A) 53

Q) Fill in the blank: the reported remaining at 5 µM of CCOC(=O)c1[nH]cc2c1NC1=C(C(=O)CCC1)C2c1ccc(Sc2nc3ccccc3[nH]2)o1 (single isomer, unassigned; (+)) is ____.
A) 69
